Molecular target: T1, Human CD3eg linker (human)
T1 construct: single-chain construct; also called recombinant human CD3
T1 chain: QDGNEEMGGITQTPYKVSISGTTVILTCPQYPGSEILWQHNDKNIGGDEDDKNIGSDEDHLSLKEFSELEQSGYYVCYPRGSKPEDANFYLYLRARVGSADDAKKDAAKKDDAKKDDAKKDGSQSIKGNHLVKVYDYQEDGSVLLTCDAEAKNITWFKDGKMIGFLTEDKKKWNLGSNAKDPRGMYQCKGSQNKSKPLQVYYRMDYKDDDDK
Test: SPR, vs unmutated H183/L072
reported-metric: fold change of affinity (fold)
Number in fold, nothing else.

dBBDu183H A102H/dBBDu072L (antibody, name in Kabat numbering, V domains shown) VH: QVQLVESGGGLVQPGRSLRLSCAASGFTFSNAWMHWVRQAPGKGLEWVAQIKDKGNAYAAYYAPSVKGRFTISRDDSKNSIYLQMNSLKTEDTAVYYCHYVHYASASTVLPAFGVDHWGQGTTVTVSS VL: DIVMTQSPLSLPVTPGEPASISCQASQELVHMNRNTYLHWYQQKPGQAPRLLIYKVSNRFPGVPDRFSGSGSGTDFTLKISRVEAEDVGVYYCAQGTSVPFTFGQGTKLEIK | 3.6

Record request: fold change of affinity value, item dBBDu183H S62N/dBBDu072L (antibody, name in Kabat numbering, V domains shown) VH: QVQLVESGGGLVQPGRSLRLSCAASGFTFSNAWMHWVRQAPGKGLEWVAQIKDKGNAYAAYYAPNVKGRFTISRDDSKNSIYLQMNSLKTEDTAVYYCHYVHYASASTVLPAFGVDAWGQGTTVTVSS VL: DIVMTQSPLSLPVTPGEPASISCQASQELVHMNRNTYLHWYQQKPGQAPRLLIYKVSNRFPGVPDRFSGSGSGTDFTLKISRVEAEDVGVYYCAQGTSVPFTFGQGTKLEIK 1.4

Also need dBBDu183H V95N/dBBDu072L (antibody, name in Kabat numbering, V domains shown) VH: QVQLVESGGGLVQPGRSLRLSCAASGFTFSNAWMHWVRQAPGKGLEWVAQIKDKGNAYAAYYAPSVKGRFTISRDDSKNSIYLQMNSLKTEDTAVYYCHYNHYASASTVLPAFGVDAWGQGTTVTVSS VL: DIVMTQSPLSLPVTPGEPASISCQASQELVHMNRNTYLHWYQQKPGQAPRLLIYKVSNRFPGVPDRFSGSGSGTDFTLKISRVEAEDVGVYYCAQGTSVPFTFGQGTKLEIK , thanks. 0
